B1: LINE1-full (parent)
chain: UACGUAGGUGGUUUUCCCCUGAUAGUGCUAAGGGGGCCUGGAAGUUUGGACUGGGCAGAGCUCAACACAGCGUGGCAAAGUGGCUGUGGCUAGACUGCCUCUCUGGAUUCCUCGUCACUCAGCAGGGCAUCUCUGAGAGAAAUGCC

# Variants of: B1
# Experimental details: self-cleavage, relative activity (ratio to wild type); higher = more cleavage; in vitro, sequencing; the parent is a self-cleaving ribozyme
Assign label 1 to entries whose self-cleavage meets or exceeds 1; assign label 0 to the rest.

{"Mutations": "U15C U115A", "Class assignment": "label 1"}
{"Mutations": "C16A A141G", "Class assignment": "label 1"}
{"Mutations": "U13A U85C", "Class assignment": "label 0"}
{"Mutations": "A2G", "Class assignment": "label 0"}
{"Mutations": "C103U U115C", "Class assignment": "label 1"}
{"Mutations": "A22G C51A", "Class assignment": "label 0"}
{"Mutations": "A42C U100C", "Class assignment": "label 1"}
{"Mutations": "U62C U108G", "Class assignment": "label 0"}
{"Mutations": "U91A U119C", "Class assignment": "label 0"}
{"Mutations": "U29C U62C", "Class assignment": "label 0"}
{"Mutations": "G32C A138G", "Class assignment": "label 0"}
{"Mutations": "A77U U130C", "Class assignment": "label 1"}
{"Mutations": "A94G A124G", "Class assignment": "label 0"}
{"Mutations": "G74A U143G", "Class assignment": "label 1"}
{"Mutations": "U15C G114C", "Class assignment": "label 1"}
{"Mutations": "G33A U143A", "Class assignment": "label 1"}
{"Mutations": "A64G U87A", "Class assignment": "label 0"}
{"Mutations": "A30G G70U", "Class assignment": "label 0"}
{"Mutations": "A30C A141G", "Class assignment": "label 1"}
{"Mutations": "G4A G127A", "Class assignment": "label 1"}
{"Mutations": "U62A U73A", "Class assignment": "label 0"}
{"Mutations": "G54A A121G", "Class assignment": "label 0"}
